# subject-of-test: E.faecalis PheRS (Enterococcus faecalis, UniProt Q836J6)
# Sequence (Q836J6 whole entry): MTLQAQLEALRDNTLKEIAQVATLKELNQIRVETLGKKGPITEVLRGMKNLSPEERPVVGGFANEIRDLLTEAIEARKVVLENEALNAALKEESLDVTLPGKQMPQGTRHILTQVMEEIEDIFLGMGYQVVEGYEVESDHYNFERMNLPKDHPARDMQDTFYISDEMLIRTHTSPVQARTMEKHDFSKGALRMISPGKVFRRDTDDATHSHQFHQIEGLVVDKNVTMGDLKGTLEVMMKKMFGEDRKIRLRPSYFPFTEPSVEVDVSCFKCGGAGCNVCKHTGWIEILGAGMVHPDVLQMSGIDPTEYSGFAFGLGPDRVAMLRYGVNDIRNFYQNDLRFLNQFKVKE
# Sequence (Q836J5 whole entry partner): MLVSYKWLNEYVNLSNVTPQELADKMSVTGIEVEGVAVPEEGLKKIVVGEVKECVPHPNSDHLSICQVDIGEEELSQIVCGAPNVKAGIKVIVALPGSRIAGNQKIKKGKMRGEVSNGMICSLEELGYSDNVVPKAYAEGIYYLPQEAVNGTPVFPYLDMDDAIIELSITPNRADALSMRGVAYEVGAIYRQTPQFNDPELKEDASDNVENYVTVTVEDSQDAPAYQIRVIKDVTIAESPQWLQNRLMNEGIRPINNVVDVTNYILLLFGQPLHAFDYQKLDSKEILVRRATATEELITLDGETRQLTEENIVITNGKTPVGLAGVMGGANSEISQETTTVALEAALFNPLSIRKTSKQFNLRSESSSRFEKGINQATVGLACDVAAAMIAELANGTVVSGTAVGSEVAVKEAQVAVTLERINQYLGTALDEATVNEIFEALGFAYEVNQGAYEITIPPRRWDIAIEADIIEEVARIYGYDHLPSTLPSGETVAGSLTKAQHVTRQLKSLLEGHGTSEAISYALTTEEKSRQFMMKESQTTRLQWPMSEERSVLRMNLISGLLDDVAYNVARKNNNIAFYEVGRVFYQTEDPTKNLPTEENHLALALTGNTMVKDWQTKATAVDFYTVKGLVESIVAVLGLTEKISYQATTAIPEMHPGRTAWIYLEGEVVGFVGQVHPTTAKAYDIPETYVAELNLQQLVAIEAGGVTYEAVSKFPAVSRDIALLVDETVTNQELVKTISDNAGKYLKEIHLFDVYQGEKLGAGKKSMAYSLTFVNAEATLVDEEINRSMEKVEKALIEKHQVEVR
Values of IC50 strictly less than 3 µM map to satisfied, and values of at least 3 µM map to not satisfied.

Q: Quick check: IC50 of Cc1ccc(NC(=O)C2C(c3ccccc3)OC34C(O)c5ccccc5C3OC(=O)C24)cc1Cl (centres unmarked) [Example 4a] under 3 µM?
Ans: satisfied

Q: Quick check: IC50 of O=C(Nc1ccc(Cl)c(Cl)c1)C1C(c2ccccc2)NC23C(O)c4ccccc4C2OC(=O)C13 (single isomer, unassigned) [Example 3c] under 3 µM?
Ans: satisfied

Q: Quick check: IC50 of Cc1ccc(NC(=O)C2C(c3ccccc3)OC34C(O)c5ccccc5C3OC(=O)C24)cc1Cl (centres unmarked) [Example 4c] under 3 µM?
Ans: not satisfied

Q: Quick check: IC50 of O=C(Nc1ccc(Cl)c(Cl)c1)C1C(c2ccccc2)OC23C(O)c4ccccc4C2OC(=O)C13 (single isomer, unassigned) [Example 1b] under 3 µM?
Ans: satisfied

Q: Quick check: IC50 of O=C(Nc1ccc(Cl)c(Cl)c1)C1C(c2ccccc2)OC23C(O)c4ccccc4C2OC(=O)C13 (single isomer, unassigned) [Example 1a] under 3 µM?
Ans: satisfied

Q: Quick check: IC50 of Cc1ccc(NC(=O)C2C(c3ccccc3)OC34C(O)c5ccccc5C3OC(=O)C24)cc1Cl (centres unmarked) [Example 4b] under 3 µM?
Ans: not satisfied

Q: Quick check: IC50 of O=C(Nc1ccc(Cl)c(Cl)c1)C1C(c2ccccc2)NC23C(O)c4ccccc4C2OC(=O)C13 (single isomer, unassigned) [Example 3b] under 3 µM?
Ans: not satisfied
